- measuredOn: Serine/threonine-protein kinase PAK 1 (Homo sapiens) (UniProt Q13153)
- Sequence (Q13153 whole entry): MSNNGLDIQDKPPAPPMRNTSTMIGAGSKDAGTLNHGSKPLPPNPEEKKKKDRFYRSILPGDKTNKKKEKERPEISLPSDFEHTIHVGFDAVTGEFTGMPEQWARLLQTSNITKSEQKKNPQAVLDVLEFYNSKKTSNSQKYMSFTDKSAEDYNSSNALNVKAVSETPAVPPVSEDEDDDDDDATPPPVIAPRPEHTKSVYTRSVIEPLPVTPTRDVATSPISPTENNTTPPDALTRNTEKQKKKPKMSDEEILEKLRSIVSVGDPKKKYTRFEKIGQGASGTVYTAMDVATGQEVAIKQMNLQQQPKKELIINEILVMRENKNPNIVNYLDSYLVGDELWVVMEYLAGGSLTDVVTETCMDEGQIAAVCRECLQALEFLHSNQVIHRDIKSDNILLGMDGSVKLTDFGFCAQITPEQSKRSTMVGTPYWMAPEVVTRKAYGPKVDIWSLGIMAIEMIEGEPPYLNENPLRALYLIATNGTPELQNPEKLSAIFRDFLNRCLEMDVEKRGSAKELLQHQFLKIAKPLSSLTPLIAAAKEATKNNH
- cond: at 1 µM;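 note: reported values are mean percent inhibition of PAK1 activity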
// map inhibition to label using group 1 = under 4%, group 2 = from 4% up to 6%, group 3 = 6% and over

INSERT INTO measurements (smilestext, label) VALUES
  ('COc1cccc(-n2ncc3c(N/N=C/c4ccc(F)cc4)ncnc32)c1', 'group 3'),
  ('CCN1CCC(CC(=O)Nc2n[nH]c3nnc(-c4cccc(F)c4F)cc23)CC1', 'group 2'),
  ('CN1CCC(n2cnc(-c3ccc(F)cc3)c2-c2ccnc(N)n2)CC1', 'group 1'),
  ('CCCN1CCC(c2ccc(Nc3nc(Nc4cc(F)ccc4C(N)=O)c4cc[nH]c4n3)c(OC)c2)CC1', 'group 1'),
  ('Fc1cccc(COc2ccc(Nc3ncnc4sc(-c5ccco5)cc34)cc2Cl)c1', 'group 2'),
  ('COc1cc2c(cc1Nc1nc(Nc3ccsc3C(N)=O)c3cc[nH]c3n1)N(C(=O)CN(C)C)CCC2(C)C', 'group 3'),
  ('c1ccc(-c2nc3n(c2-c2ccc4c(c2)OCO4)CCC3)nc1', 'group 3'),
  ('O=C(O[C@H]1CN[C@H](C#Cc2cc3ncnc(Nc4ccc(Cc5ccccc5)cc4)c3s2)C1)N1CCOCC1', 'group 1'),
  ('CCn1c(-c2nonc2N)nc2cnc(Oc3cccc(NC(=O)c4ccc(N(C)C)cc4)c3)cc21', 'group 3');
